Molecular target: type V tartrate-resistant acid phosphatase (TRAP) protein, immobilised on CM5 sensor chip
Experiment: SPR, TRAP on CM5 chip, binding curve fit (n = 2, Ave. ± StDev)
pKd: −log10 of the molar value. Ends that are not written are not given here. * marks the point of attachment. Methacryloyl = C=C(C)C(=O)*
Reported pKd values for a set of binders
PARAMETER_MEASURED: pKd

>>> reported_result("TPLSYLKGLVTVG [TRAP-binding peptide (TBP)]")
3.10
>>> reported_result("Methacryloyl-TPLSYLKGLVTVG (also: RAFT copolymer with PEG monomethyl ether methacrylate, multivalent) [20% peptide monomer TBP-functionalized PEG polymer (Table 1, Mn 26700 Da)]")
5.12
>>> reported_result("Methacryloyl-TPLSYLKGLVTVG (also: RAFT copolymer with PEG monomethyl ether methacrylate, multivalent) [10% peptide monomer TBP-functionalized PEG polymer (Table 1, Mn 69000 Da)]")
4.90
>>> reported_result("Methacryloyl-TPLSYLKGLVTVG (also: RAFT copolymer with PEG monomethyl ether methacrylate, multivalent) [5% peptide monomer TBP-functionalized PEG polymer (Table 1, Mn 103900 Da)]")
4.66
